# System: MS2 coat protein
# procedureText: apparent KD of MS2 coat protein; designed switch direction (-1 OFF switch, 1 ON switch): 1; higher = weaker reporter binding
# conditionInfo: input ligand: microRNA oligo, concentration not stated
The following sequences are listed with their measured apparent KD of MS2 coat protein values.
Supply the numeric figure in nM, leaving out any unit text.

Examples with answers:
* UCAAUCAUGUAAGGAUAUGCAGCCGAAACGGCUGCAGAAGGUACUAUAAUUACAUGAGGAUCACCCAUGUUAUAAAAUAAAUAU [Mat - Same State NG 1 - JL mod - D80] (Eterna round: R96, puzzle: Same State NG 1) | 92.7
* CAUCUAUACUUAGGAUAUGUAGGAUAUGCCUACAUGAGGAUCACCCAUGUUCGCAUGGCAGAAGGACAGAAGGAAGAACUACUU [pwkr ssNG2 2FMN + 1F5.5] (Eterna round: R96, puzzle: Same State NG 2) | 57.3
* UUAUUAUUUACAUGAGGAUCACCCAUGUUUUUAUGUCUUAGACAGGAUAUAGUAGUCUCGUUUUACUAGAAGGGUCUUUUUAUU [JR_SSNG3_Sub018] (Eterna round: R96, puzzle: Same State NG 3) | 31.9

Okay, next one:
Prompt: For AAAUAAUAGGCAGGAUAUGGGAAAGGAAGUGUACCAGAAGGGCCGCAACUCAAUACAACAUGAGGAUCACCCAUGUUAGUGUCG [PowerStrip SSNG 1.5] (Eterna round: R96, puzzle: Same State NG 1) , what is its reported apparent KD of MS2 coat protein?
Response: 14.9

---

# Test system: MS2 coat protein
# procedureText: apparent KD of MS2 coat protein; designed switch direction (-1 OFF switch, 1 ON switch): -1; higher = weaker reporter binding
# conditionInfo: input ligand: none
Criterion: apparent KD of MS2 coat protein meeting or surpassing 0.03 µM. Met: 1.0. Not met: 0.0.

* CGCACGUAAGGAUAUACAUGAGGAUCACCCAUGUGUAAAUACUGCAACGUGGUGAAUAGUAGAAGGUACGAUGC [Eternabot (L2) Solution 56] (Eterna round: R97, puzzle: Exclusion 3) | 0.0
* UAAUGUAUAUAGGAUAUCUAGCUGGAAACAGCUAGAGAAGGAUGUACAUGAGGAUCACCCAUGUAAAUCGUGAA [Ex6/13-B1] (Eterna round: R97, puzzle: Exclusion 6) | 0.0

Prompt: Does apparent KD of MS2 coat protein meet or surpass 0.03 µM for GGAUCGAGUGUGAGGAUAUGCUGGUCCUUGGAUCAGCAGAAGGCACAUGAGGAUCACCCAUGUGAAGACGAUCC [Mat - Exclusion 4 - JL Mod - D73] (Eterna round: R96, puzzle: Brourd's mod of Exclusion 4) ?
Response: 0.0

Prompt: Ok, now ACAAGCUUAAUCAGUAUGAACAUGAGGAUCACCCAUGUAAAAGGGAAUACUAUUGGGUUUUUUAAAGCUCGUCUUAU [JR_STOV1_Sub017] (Eterna round: R97, puzzle: Sensor, turn-off variant 1)
Response: 0.0

Prompt: Ok, now CCACUUACUGAGGAUAUUGCAUCACCCGACUGAUAAGAAGGCAGAACAUGAGGAUCACCCAUGUGGGUACUCAC [Bingo-Bango-9] (Eterna round: R97, puzzle: Exclusion 6)
Response: 1.0

Prompt: Ok, now CAGUACUGAGGAUAUACAUGAGGAUCACCCAUGUGAGAAAUACUAAUGAGGUCGAUUAGUAGAAGGCAGUACUG [Mat - Exclusion 3 - Eli Mod - D32] (Eterna round: R97, puzzle: Exclusion 3)
Response: 0.0

Prompt: Ok, now AGGAUGUAAGGAUAUCCAAGGGUAACGCCAAUGGCAGCCCAGGAGAAGGUACAUGAGGAUCACCCAUGUGAUAA [Leatbi] (Eterna round: R97, puzzle: Exclusion 4)
Response: 1.0

Prompt: Ok, now UCGUUUCGUGUAGGAUAUUGGCCUGCUCUGGGUCGAGAAGGACAUGAGGAUCACCCAUGUAUGUUAUUAUCACGCGUGGCGCAU [Design 82] (Eterna round: R96, puzzle: Exclusion NG 1)
Response: 1.0

Hey, just so you know, these numbers are from the supplement of paper PMC9170038.
